Quick reference for pKd among some compounds
# Target Or System: human recombinant CA XIII (Homo sapiens)
# Construct: recombinant human carbonic anhydrase catalytic domains using the fluorescent thermal shift assay
# Sequence (Q8N1Q1 4-261 limits assumed): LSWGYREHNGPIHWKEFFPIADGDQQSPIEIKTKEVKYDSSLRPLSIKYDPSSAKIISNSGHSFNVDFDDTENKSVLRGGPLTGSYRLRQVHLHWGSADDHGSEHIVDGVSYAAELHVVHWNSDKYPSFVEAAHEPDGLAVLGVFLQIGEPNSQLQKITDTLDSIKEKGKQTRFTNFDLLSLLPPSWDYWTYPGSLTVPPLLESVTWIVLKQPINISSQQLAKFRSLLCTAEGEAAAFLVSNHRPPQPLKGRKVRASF
# Protocol Summary: Fluorescent thermal shift assay (FTSA), CA XIII
# Condition Details: 37° C., pH 7.0
pKd (log units): -log10 of the concentration in mol/L.

In the examples that follow, each entry is paired with its recorded pKd.
| Compound | Observable | Observed Value |
| --- | --- | --- |
| NS(=O)(=O)c1c(F)c(F)c(S(=O)(=O)CCNC(=O)CCOCCOCCOCCOCCOCCOCCOCCOCCOCCOCCOCCOCCNC(=O)CCCCC2SCC3NC(=O)NC32)c(NC2CCCCCCC2)c1F (stereo not drawn) | pKd | 7.30 |
| NS(=O)(=O)c1c(F)c(F)c(S(=O)(=O)CCNC(=O)CCOCCOCCOCCOCCOCCOCCOCCOCCOCCOCCOCCOCCOCCC(=O)NCCS(=O)(=O)c2c(F)c(F)c(S(N)(=O)=O)c(F)c2NC2CCCCCCC2)c(NC2CCCCCCC2)c1F | pKd | 8.70 |

Specify pKd for NS(=O)(=O)c1c(F)c(F)c(S(=O)(=O)CCNC(=O)CCOCCOCCOCCOCCOCCOCCOCCOCCOCCOCCOCCOCCOCCC(=O)O)c(NC2CCCCCCC2)c1F and stop. 7.70

These data points were gathered from patent US20240000946A1.
